Molecular target: T1, human amylin-3(a) receptor (human, UniProt P30988 25-474; O60896 24-148)
T1 sequence (looked up) 1: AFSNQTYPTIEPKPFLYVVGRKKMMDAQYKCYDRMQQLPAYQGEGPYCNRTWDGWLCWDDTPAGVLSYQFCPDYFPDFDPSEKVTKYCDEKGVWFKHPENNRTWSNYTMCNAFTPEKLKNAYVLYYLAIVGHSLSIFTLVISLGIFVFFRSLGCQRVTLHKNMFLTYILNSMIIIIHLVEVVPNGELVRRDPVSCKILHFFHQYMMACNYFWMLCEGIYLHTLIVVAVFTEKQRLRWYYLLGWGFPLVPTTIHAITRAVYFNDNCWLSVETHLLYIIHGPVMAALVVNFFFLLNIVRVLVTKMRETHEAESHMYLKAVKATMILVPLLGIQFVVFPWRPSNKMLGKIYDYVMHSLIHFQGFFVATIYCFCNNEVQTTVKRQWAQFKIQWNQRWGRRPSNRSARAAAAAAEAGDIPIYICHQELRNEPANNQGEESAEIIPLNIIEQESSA
T1 sequence (looked up) 2: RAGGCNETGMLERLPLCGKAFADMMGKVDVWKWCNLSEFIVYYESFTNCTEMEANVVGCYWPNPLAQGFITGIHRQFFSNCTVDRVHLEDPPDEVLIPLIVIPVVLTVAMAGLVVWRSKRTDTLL
Assay: cell-based or functional assay
Numbered stars: 1 amine (or outer) side, 2 acyl side, 3 side chain; on linkers, the order of the positions; unused ones are H or OH. Square brackets hold non-standard residues; d marks the D form. Side chains are listed from the residue outwards. * marks the point of attachment. C18 diacid = O=C(O)CCCCCCCCCCCCCCCCC(=O)*; γGlu = O=C(O)[C@H](CCC(=O)[*:2])N[*:1]; Chem. 28 = not defined here; Chem. 29 = not defined here; AEEA = NCCOCCOCC(=O)O; Aib = CC(C)(N)C(=O)O
Outcome: true for hAMYR3 Potency, no HSA, EC50 [pM] of at least 5 pM; false for anything lower.

INSERT INTO results (binder, assigned_label) VALUES
  ('Compound 45 (reading uncertain) peptide: H[Aib]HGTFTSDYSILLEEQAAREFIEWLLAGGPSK(Chem. 28)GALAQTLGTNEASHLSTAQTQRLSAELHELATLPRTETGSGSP-NH2', 'false'),
  ('Compound 78 (peptide) peptide: H[Aib]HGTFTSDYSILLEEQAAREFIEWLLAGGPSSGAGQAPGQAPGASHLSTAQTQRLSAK([AEEA-AEEA-γGlu-C18 diacid])LHRLATLPRTETGSGSP-NH2', 'false'),
  ('Compound 83 (peptide) peptide: H[Aib]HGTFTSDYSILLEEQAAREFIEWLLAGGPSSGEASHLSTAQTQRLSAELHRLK([AEEA-AEEA-γGlu-C18 diacid])TLPRTETGSGSP-NH2', 'false'),
  ('Compound 80 (peptide) peptide: Y[Aib]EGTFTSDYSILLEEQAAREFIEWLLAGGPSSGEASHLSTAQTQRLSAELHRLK([AEEA-AEEA-γGlu-C18 diacid])TLPRTETGSGSP-NH2', 'false'),
  ('Compound 25 (reading uncertain) peptide: H[Aib]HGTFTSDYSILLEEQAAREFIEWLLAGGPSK(Chem. 28)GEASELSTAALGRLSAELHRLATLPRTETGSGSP-NH2', 'false'),
  ('Compound 31 (reading uncertain) peptide: Y[Aib]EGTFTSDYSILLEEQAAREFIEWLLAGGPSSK(Chem. 28)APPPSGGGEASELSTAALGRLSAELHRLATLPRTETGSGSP-NH2', 'false'),
  ('Compound 23 (reading uncertain) peptide: Y[Aib]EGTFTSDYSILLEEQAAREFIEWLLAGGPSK(Chem. 28)GALAQTLGTNEASELSTAALGRLSAELHELATLPRTETGSGSP-NH2', 'true'),
  ('Compound 11 (reading uncertain) peptide: Y[Aib]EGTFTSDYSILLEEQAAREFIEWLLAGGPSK(Chem. 29)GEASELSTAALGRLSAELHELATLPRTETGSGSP-NH2', 'true');
